Ref: ChEMBL document CHEMBL4842338

Experimental System: CDK9/cyclin T1 (Homo sapiens)
Sequence (O60563 whole entry): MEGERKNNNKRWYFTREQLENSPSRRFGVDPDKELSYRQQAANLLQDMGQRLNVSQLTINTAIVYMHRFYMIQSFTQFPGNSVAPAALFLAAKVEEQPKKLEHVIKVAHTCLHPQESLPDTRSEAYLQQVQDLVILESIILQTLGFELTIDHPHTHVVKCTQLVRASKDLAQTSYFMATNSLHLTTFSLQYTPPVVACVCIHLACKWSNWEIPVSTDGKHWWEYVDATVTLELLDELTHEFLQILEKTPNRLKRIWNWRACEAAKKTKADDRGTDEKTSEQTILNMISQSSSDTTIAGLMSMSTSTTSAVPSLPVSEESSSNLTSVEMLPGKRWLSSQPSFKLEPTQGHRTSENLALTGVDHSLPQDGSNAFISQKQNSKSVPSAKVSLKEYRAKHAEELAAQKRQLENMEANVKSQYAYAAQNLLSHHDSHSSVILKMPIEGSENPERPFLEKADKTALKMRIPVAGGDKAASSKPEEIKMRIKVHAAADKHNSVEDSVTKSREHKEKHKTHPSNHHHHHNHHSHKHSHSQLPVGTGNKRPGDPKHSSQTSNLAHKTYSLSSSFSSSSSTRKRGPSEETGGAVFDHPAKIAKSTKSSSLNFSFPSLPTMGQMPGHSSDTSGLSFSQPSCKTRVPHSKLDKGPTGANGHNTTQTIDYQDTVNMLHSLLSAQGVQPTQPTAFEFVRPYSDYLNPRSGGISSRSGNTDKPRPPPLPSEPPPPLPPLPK
Sequence (P50750 whole entry): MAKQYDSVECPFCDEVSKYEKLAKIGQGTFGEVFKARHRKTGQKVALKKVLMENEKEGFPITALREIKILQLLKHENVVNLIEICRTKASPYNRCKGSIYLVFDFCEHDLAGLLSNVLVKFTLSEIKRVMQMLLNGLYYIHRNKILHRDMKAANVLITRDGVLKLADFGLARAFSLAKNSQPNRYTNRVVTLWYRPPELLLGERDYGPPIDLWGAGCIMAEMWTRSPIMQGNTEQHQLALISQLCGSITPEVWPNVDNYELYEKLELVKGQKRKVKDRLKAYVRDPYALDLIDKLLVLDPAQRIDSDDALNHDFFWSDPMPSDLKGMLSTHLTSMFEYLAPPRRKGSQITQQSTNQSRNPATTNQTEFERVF
Assay Info: Inhibition of human full length CDK9/ His-tagged cT1 assessed as residual activity at 5 uM using CDKtide as a substrate in the presence of BSA incubated for 10 mins by scintillation counting analysis relative to control
Assay type: protein-complex assay
Experimental Conditions: full length CDK9/His-tagged cyclin T1 complex, probe CDKtide, read-out: Activity
Property Name: activity at 10 min, 5 µM

// worked examples, activity at 10 min, 5 µM included
> print(dat)
                              line.notation  endpoint.value
1  FC(F)(F)c1cccc(Nc2nc(NCCOc3ccccc3)nc3[nH]cnc23)c1           > 98%
2  Fc1cccc(Nc2nc(NCCOc3ccccc3)nc3[nH]cnc23)c1             87%
3  Oc1cccc(Nc2nc(NCCOc3ccccc3)nc3[nH]cnc23)c1           > 98%

In: Kindly indicate its recorded activity at 10 min, 5 µM. Item: "Fc1cccc(NNc2nc(NCCOc3ccccc3)nc3[nH]cnc23)c1"
Out: 88%

In: Kindly indicate its recorded activity at 10 min, 5 µM. Item: "Fc1cccc(/N=N/c2nc(NCCOc3ccccc3)nc3[nH]cnc23)c1"
Out: > 98%

----------
Assay Info: Selectivity index, ratio of CC50 for human Huh-7 cells infected with SARS-COV-2 to IC50 for SARS-COV 2 infected in human Huh-7
Type: toxicity
Experimental Conditions: read-out: Selectivity Index
selectivity ratio listing for selected molecules.
Enter a number only.

> print(dat)
                              line.notation      property.name  endpoint.value
1  FC(F)(F)c1cccc(Nc2nc(NCCOc3ccccc3)nc3[nH]cnc23)c1  selectivity ratio              74

API: the following record is the query input.
In: Kindly indicate its recorded selectivity ratio. Item: "CCC(CC)COC(=O)[C@H](C)N[P@](=O)(OC[C@H]1O[C@@](C#N)(c2ccc3c(N)ncnn23)[C@H](O)[C@@H]1O)Oc1ccccc1"
Out: 19200

----------
Assay Info: Cytotoxicity against human Huh-7 cells infected with SARS-COV-2 assessed as reduction in cell viability by celltiter-glo luminescent cell viability assay
Type: cell-based
Experimental Conditions: Huh-7 cells infected with SARS-COV-2
Property Name: CC50 (µM)
Write the answer as a number in µM, unit excluded.

In: Kindly indicate its recorded CC50. Item: "FC(F)(F)c1cccc(Nc2nc(NCCOc3ccccc3)nc3[nH]cnc23)c1"
Out: 200

----------
Tested on: MDCK
Assay Info: Cytotoxicity against MDCK cells assessed as reduction in cell viability measured after 24 hrs by MTT assay
Format: cell-based, Canis lupus familiaris
Experimental Conditions: dog, mdck, 24 h
Property Name: CC50 (µM)
Write the answer as a number in µM, unit excluded.

// worked examples, CC50 included
> print(dat)
                              line.notation  experimental.system  endpoint.value
1  Fc1cccc(Nc2nc(NCCOc3ccccc3)nc3[nH]cnc23)c1                 MDCK              77
2  FC(F)(F)c1cccc(Nc2nc(NCCOc3ccccc3)nc3[nH]cnc23)c1                 MDCK              77

API: the following record is the query input.
In: Kindly indicate its recorded CC50. Item: "Fc1cccc(NNc2nc(NCCOc3ccccc3)nc3[nH]cnc23)c1"
Out: 136
